These data points were gathered from BindingDB's records for doi:10.1021/jm990947f.

assay: Inhibition of IGF-I stimulated MCF-7 human breast tumor cell proliferation
OBSERVED PROPERTY: IC50 (nM)
API: value field is a number in nM; no unit string.

Data request, read-out IC50, for COc1cc(/C=C(\C#N)c2ccccn2)ccc1O
2900

====

assay: Inhibition of IGF-II stimulated MCF-7 human breast tumor cell proliferation
OBSERVED PROPERTY: IC50 (µM)
API: value field is a number in µM; no unit string.

Data request, read-out IC50, for COc1cc(/C=C(\C#N)c2ccccn2)ccc1O
3.2
